Reported values of self-splicing fitness (ln) for individual entries
Assay: self-splicing fitness, log relative to wild type (ln ratio); higher = more splicing; Tetrahymena group I intron in knt gene, E. coli kanamycin selection, DiMSum; sequences stand for … in CUCUCU…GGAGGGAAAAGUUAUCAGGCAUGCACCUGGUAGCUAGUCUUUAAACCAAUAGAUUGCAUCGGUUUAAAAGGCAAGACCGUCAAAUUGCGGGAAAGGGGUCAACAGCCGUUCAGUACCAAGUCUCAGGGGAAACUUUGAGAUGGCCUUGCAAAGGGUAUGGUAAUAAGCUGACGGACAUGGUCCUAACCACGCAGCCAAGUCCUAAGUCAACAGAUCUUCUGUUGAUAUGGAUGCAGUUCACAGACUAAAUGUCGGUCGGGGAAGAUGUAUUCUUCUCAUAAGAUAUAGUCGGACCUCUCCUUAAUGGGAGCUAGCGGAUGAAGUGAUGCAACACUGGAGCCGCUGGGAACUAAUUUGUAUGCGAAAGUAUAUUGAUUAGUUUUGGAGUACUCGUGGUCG;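 note: selection with 25 µg/mL kanamycin versus none on LB agar overnight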
Conditions: 30 °C

Some solved cases for reference:
| polymer_sequence | self-splicing fitness (ln) |
| --- | --- |
| GGAAAGCAAUAUUACGAACA | -1.34 |
| UGUGAGCAAUAUUACGUAUA | -3.5 |

Please examine the following record next.
# input self-splicing fitness (ln) lookup needed for GAGCAGCAAUAUUACGCCAG , thanks.
# output -2.49
